Just for reference, ChEMBL document CHEMBL4689842 is where these values come from.

System: Fibroblast
ASSAY PROTOCOL: Multiplex assay against human fibroblast
Assay type: toxicity, cell-based
RECORDED CONDITIONS: 48 h, 10 µM, compound concentration 10 uM, replicate 2
As shown below, each of these compounds has a reported Population Normal (%) value.
Numeric answer only, unit % assumed.

COMPOUND	RESULT UNIT	Population Normal (%)
CCc1nn(CCCN2CCN(c3cccc(Cl)c3)CC2)c(=O)n1CCOc1ccccc1.Cl [NEFAZODONE HYDROCHLORIDE]	%	75
COc1cc(Nc2nccc(-c3cnn4nc(OC)ccc34)n2)cc(C(F)(F)F)c1	%	73
C#Cc1cccc(Nc2ncnc3cc(OCCOC)c(OCCOC)cc23)c1	%	76
CNC(=O)Nc1ccc(-c2nc(N3CC4CCC(C3)O4)c3cnn(C4CCC5(CC4)OCCO5)c3n2)cc1	%	90
CN1CCN(Cc2ccc(Nc3ncc(Cl)c(Nc4ccccc4S(=O)(=O)N(C)C)n3)cc2)CC1	%	83

So the reported Population Normal (%) for O=c1cc(N2CCOCC2)oc2c(-c3cccc4c3sc3ccccc34)cccc12 , on Fibroblast, turned out to be 90

Readout Population Normal (%) for Cc1ccccc1C(c1ccccc1C)N1C2CCC1CC(O)(c1ccccc1)C2 (stereo not drawn) , test system Fibroblast, was 95

Let me check: Cc1ccc2c(c1)c1c(n2CCc2ccc(C)nc2)CCN(C)C1 [LATREPIRDINE] , system Fibroblast, measured Population Normal (%) is 74

Query CCc1ccc(OCc2ccccc2C(=O)Nc2ccc3nc(C)cc(N)c3c2)cc1.Cl on Fibroblast; Population Normal (%) returned: 60

# Cc1ccc(C)c(Oc2ccncc2C(=O)N2CCN(C3CC3)c3ccccc32)c1 with Fibroblast: Population Normal (%) is 92

Reported Fibroblast Population Normal (%) for item CC(C)c1noc(N2CCC(COc3ccc(-c4ccc(S(C)(=O)=O)cc4)nc3)CC2)n1 was 90
